Data provenance: ChEMBL document CHEMBL3877278

experiment: Antiproliferative activity against 2D culture of human T47D cells after 72 hrs MTS assay; type: functional, cell-based
Listed here are compounds together with their documented IC50.
metric name: IC50 (µM)

> print(dat)
                                chem.smiles  metric.name  result.modifier  recorded.result
1   CN(C)CCCNc1ccc2cc(C#N)c3nc4ccccc4n3c2c1         IC50                =               12
2  CC(C)CNc1ccc2c(c1)sc1cc(C#N)c3nc4ccccc4n3c12         IC50                =                2
3     CC(C)CNc1c(C#N)c2nc3ccccc3n2c2ccccc12         IC50                >               30
4    N#Cc1c(N2CCNCC2)c2ccccc2n2c1nc1ccccc12         IC50                >               30
5  N#Cc1cc2sc3cc(N4CCNCC4)ccc3c2n2c1nc1ccccc12         IC50                =                5
6   CN(C)CCCNc1c(C#N)c2nc3ccccc3n2c2ccccc12         IC50                =               29
